koff: recorded values
Molecular target: T1, biotinylated GITR (human, UniProt Q9Y5U5 26-161, limits assumed, biotinylated (sites not given))
T1 construct: also called GITR-bio; Biotin-GITR
T1 sequence: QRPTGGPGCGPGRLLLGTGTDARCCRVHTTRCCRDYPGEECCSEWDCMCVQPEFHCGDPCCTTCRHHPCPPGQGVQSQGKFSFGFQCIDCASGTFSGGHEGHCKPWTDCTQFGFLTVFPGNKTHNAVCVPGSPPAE
Test: BLI (Octet), biotin-GITR on streptavidin tips, antibody supernatant
Numeric answer only, unit s⁻¹ assumed.

BINDER	koff [s⁻¹]
germline variant antibody 59 (H1916G05 / K1916G05) (antibody, V domains shown, IGHG1/IGKC expression vectors; measured from CHO culture supernatant; also called Antibody ID 59) VH: QVQLVQSGAEVKKPGASVKVSCKASGYTFTEYAMYWVRQAPGQGLEWMGLIRTYSGGVSYNQKFRDRVTMTVDKSISTAYMELSRLRSDDTAVYYCAKSGTVRGFAYWGQGTLVTVSS VL: DIVMTQSPDSLAVSLGERATINCKSSQSLLNSSNQKNYLSWYHQKPGQPPKLLIYWASTRESGVPDRFSGSGSGTDFTLTISSVQAEDVAVYHCQNDYSYPYTFGQGTKLEIK	0.000312

Now take the following binder into account.
What value of koff has been recorded for this entry: germline variant antibody 102 (H1917H02 / K1917H02) (antibody, V domains shown, IGHG1/IGKC expression vectors; measured from CHO culture supernatant; also called Antibody ID 102) VH: QVQLVQSGTEVKKPGASVKVSCKASGYTFTGYAMYWVRQAPGQGLEWIGVIRTYSGGVSYNQKFRDRVTMTVDTSISTAYMELSRLRSDDTAVYYCAKSGTVRGFAYWGQGTLVTVSS VL: DIVMTQSPDSLAVSLGERATINCKSSQSLLNSSNQKNYLSWYQQKPGQPPKLLIYWASTRESGVPDRFTGSGSGTDFTLTISSVQAEDVAVYYCQNDYSYPYTFGQGTKLEIK
0.000632

Recorded values, source patent US20210070872A1.
